Origin of values: patent US12588678B2

Please go through the items and note down their mortality at 0.1 µg/mL.
Tested on: Tetranychus cinnabarinus mite larvae
Assay: Larvicidal activity test, dipping method on bean seedling leaves
Assay type: in vivo
Settings: Tetranychus cinnabarinus, 96 h, read-out: mortality of mite larvae (%), 0.1 mg/L; checked after 4 days
Numbers only, in %.

C#CCCOCc1ccc(C2COC(c3c(F)cccc3F)=N2)cc1 (stereo not shown) [Compound R2-7] = 40
CS(=O)(=O)Oc1ccc(C2COC(c3c(F)cccc3F)=N2)cc1 (stereo not shown) [Compound R3-1] = 50
COCc1ccc(C2COC(c3c(F)cccc3F)=N2)cc1 (stereo not shown) [Compound R2-1] = 50
Fc1cccc(F)c1C1=NC(c2ccc(COCC#Cc3ccccc3)cc2)CO1 (stereo not shown) [Compound R2-8] = 50
O=S(=O)(Oc1ccc(C2COC(c3c(F)cccc3F)=N2)cc1)c1ccc(Br)cc1 (stereo not shown) [Compound R3-9] = 70
CCCOCc1ccc(C2COC(c3c(F)cccc3F)=N2)cc1 (stereo not shown) [Compound R2-3] = 90
Fc1cccc(F)c1C1=NC(c2ccc(COCC(F)(F)F)cc2)CO1 (stereo not shown) [Compound R2-5] = 90
Fc1cccc(F)c1C1=NC(c2ccc(COc3ccc(C(F)(F)F)cc3)cc2)CO1 (stereo not shown) [Compound R2-23] = 75
O=S(=O)(Oc1ccc(C2COC(c3c(F)cccc3F)=N2)cc1)c1ccc(C(F)(F)F)cc1 (stereo not shown) [Compound R3-13] = 60
Fc1ccc(OCc2ccc(C3COC(c4c(F)cccc4F)=N3)cc2)cc1 (stereo not shown) [Compound R2-18] = 70

Provide the reported mortality at 0.1 µg/mL of each entry below, same order.
1. O=S(=O)(Oc1ccc(C2COC(c3c(F)cccc3F)=N2)cc1)c1ccc(F)c(F)c1F (stereo not shown) [Compound R3-15]
2. CCOc1cc(C(C)(C)C)ccc1C1COC(c2c(F)cccc2F)=N1 (stereo not shown) [Etoxazole, reference compound]
3. C=C(C)COCc1ccc(C2COC(c3c(F)cccc3F)=N2)cc1 (stereo not shown) [Compound R2-6]
4. Fc1cccc(F)c1C1=NC(c2ccc(Cn3ccc4ccccc43)cc2)CO1 (stereo not shown) [Compound R1-15]
5. O=S(=O)(Oc1ccc(C2COC(c3c(F)cccc3F)=N2)cc1)c1ccc2ccccc2c1 (stereo not shown) [Compound R3-21]
6. Fc1cccc(F)c1C1=NC(c2ccc(COc3ccc4ccccc4c3)cc2)CO1 (stereo not shown) [Compound R2-24]
7. Fc1ccc2c(ccn2Cc2ccc(C3COC(c4c(F)cccc4F)=N3)cc2)c1 (stereo not shown) [Compound R1-22]
8. FCCOCc1ccc(C2COC(c3c(F)cccc3F)=N2)cc1 (stereo not shown) [Compound R2-4]

**A:**
1. 65
2. 65
3. 80
4. 65
5. 65
6. 85
7. 70
8. 70

CCCS(=O)(=O)Oc1ccc(C2COC(c3c(F)cccc3F)=N2)cc1 (stereo not shown) [Compound R3-3] tested on Tetranychus cinnabarinus mite larvae gave mortality at 0.1 µg/mL: 80
